Field: TGI. Provide a value for each of the molecules that follow.
- Tested on: UACC-257 melanoma
- Method: NCI tumour cell line growth inhibition, 48 h

CC(=O)OCC1OC(n2c3c(cc(C#N)c2=S)CCC3)C(OC(C)=O)C(OC(C)=O)C1OC(C)=O (configuration not stated); > 100 µM
C/C(=N\NC(=S)NCCCCNC(=S)N/N=C(\C)c1ccccn1)c1ccccc1; 9.64 µM

State the recorded TGI for every item in the following list.
1. Cn1cc(C2=C(c3c4n(c5ccccc35)CCC(CN)C4)C(=O)NC2=O)c2ccccc21 (configuration not stated)
2. CC(=O)C1Cn2c(=O)c3cc4ccccc4cc3c(=O)n2C=C1C (configuration not stated)
3. CC(Oc1ccccc1Cl)C(=O)NN1C(=O)CC(=O)NC1=S (configuration not stated)
4. COc1ccc(Nc2cc(C)nc(NCc3ccccc3)n2)cc1

Key:
6.68 µM
> 100 µM
> 100 µM
13.3 µM
